Give measured pKd for each item. Keep answers brief.
# SUBJECT OF TEST: T1, Cyno CD47 ECD protein, His-tagged, monomer (cyno)
# T1 construct: extracellular domain; also called cynomolgus CD47
# TEST SUMMARY: ProteOn SPR; mAb captured, ECD monomer as analyte
Lab note: report pKd as minus log10 of the concentration in molar units, number only.

Enquiry: // returns reported pKd for input C47B218 (antibody, V domains shown, human IgG2sigma/kappa) VH: EVQLVQSGAEVKKPGESLKISCKGSGYSFTDSWIGWVRQMPGKGLEWMGIIYPGDSDTRYSPSFQGQVTISADKSISTAYLQWSSLKASDTAVYYCARVGRFASHQLDYWGQGTLVTVSS VL: EIVLTQSPATLSLSPGERATLSCRASQSVNNRLAWYQQKPGQAPRLLIHWASTRAIGIPARFSGSGSGTDFTLTISSLEPEDFAVYYCQQGASWPFTFGQGTKVEIK
Return: 8.80

Enquiry: What measured pKd goes with C47B234 (antibody, V domains shown, human IgG2sigma/kappa) VH: EVQLVQSGAEVKKPGESLKISCKGSGYSFDNYWIGWVRQMPGKGLEWMGIIYPGDSDTRYSPSFQGQVTISADKSISTAYLQWSSLKASDTAVYYCARVGRFASHQLDYWGQGTLVTVSS VL: EIVLTQSPATLSLSPGERATLSCRASQSVNKALAWYQQKPGQAPRLLIYGASNRATGIPARFSGSGSGTDFTLTISSLEPEDFAVYYCQQGKGWPFTFGQGTKVEIK ?
Return: 8.10

Enquiry: For the binder C47B223 (antibody, V domains shown, human IgG2sigma/kappa) VH: EVQLVQSGAEVKKPGESLKISCKGSGYSFTDYWIGWVRQMPGKGLEWMGIIYPGDSDTRYSPSFQGQVTISADKSISTAYLQWSSLKASDTAVYYCARVGRFASHQLDYWGQGTLVTVSS VL: EIVLTQSPATLSLSPGERATLSCRASQSVGSRLAWYQQKPGQAPRLLIYWASTRATGIPARFSGSGSGTDFTLTISSLEPEDFAVYYCQQGAYWPFTFGQGTKVEIK , what pKd is on record?
Return: 9.09

Taken from patent US20180250395A1.
